Value source: paper PMC10227015

System: dCK-C3S-S74E
Sequence (P27707 whole entry S74E, form open): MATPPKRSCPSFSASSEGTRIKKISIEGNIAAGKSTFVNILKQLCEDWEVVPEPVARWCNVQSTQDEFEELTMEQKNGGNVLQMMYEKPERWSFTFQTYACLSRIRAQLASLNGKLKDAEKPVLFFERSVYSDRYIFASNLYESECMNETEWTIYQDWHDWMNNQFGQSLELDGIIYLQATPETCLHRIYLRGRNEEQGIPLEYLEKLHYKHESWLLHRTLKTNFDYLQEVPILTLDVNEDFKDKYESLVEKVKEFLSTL
Assay: Enzymatic assay (PK/LDH coupled), dC phosphorylation by dCK in the presence of UTP
Type: biochemical, human
Settings: presence of UTP
Protocol: For enzymatic assays, cells were re-suspended in 20 mM TRIS, pH 8 500 mM NaCl, 0.1% BRIJ-35 and 5% glycerol buffer and one EDTA free anti-protease tablet was added (Roche). […] Kinetic analyses were performed using a spectrophotometric continuous enzymatic-coupled assay using pyruvate kinase (PK) and lactate dehydrogenase (LDH). […] All measurements were performed on a microplate reader Pherastar FS (BMG Labtech). […]
METRIC_NAME: ENZYMATIC ASSAY (Activation/Inhibition)

[[record]]
compound = "Cc1ccc(-c2ccc(O)cc2)cc1Nc1nc(-c2nccc(N)n2)cs1 [OR0320]"
measurement_target = "dCK-C3S-S74E"
value_measured = "A/I"

[[record]]
compound = "CCCN(c1nc(-c2nccc(N)n2)cs1)c1cc(-c2ccc(CCN3CCN(C)CC3)cc2)ccc1C [OR0345]"
measurement_target = "dCK-C3S-S74E"
value_measured = "I"

[[record]]
compound = "CN1CCN(Cc2ccc(C(=O)Nc3ccc4c(c3)N(c3nc(-c5nccc(N)n5)cs3)CCCC4)cc2)CC1 [OR0289]"
measurement_target = "dCK-C3S-S74E"
value_measured = "A/I"

[[record]]
compound = "CCCN(c1nc(-c2nccc(N)n2)cs1)c1cc(-c2ccc(CCN3CCN(C)CC3)nc2)ccc1C [OR0599]"
measurement_target = "dCK-C3S-S74E"
value_measured = "I"


###

tested on: dCK-C3S-S74E; assay: Thermal shift assay (TSA); conditions: mean ± SD
One threshold, 20 °, splits the recorded THERMAL SHIFT ASSAY +Tm (°) values: lower ones are 1.0, equal or higher ones are 0.0.

[[record]]
compound = "CCCN(c1nc(-c2nccc(N)n2)cs1)c1cc(-c2ccc(CCCN3CCN(C)CC3)cc2)ccc1C [OR0598]"
measurement_target = "dCK-C3S-S74E"
assigned_category = 1.0

[[record]]
compound = "CCCN(c1nc(-c2nc(N)cc(N)n2)cs1)c1cc(-c2ccc(S(=O)(=O)N3CCN(C)CC3)cc2Cl)ccc1C [OR0641]"
measurement_target = "dCK-C3S-S74E"
assigned_category = 0.0

[[record]]
compound = "Cc1ccc(-c2ccc(S(=O)(=O)N3CCN(C)CC3)cc2)cc1N(c1nc(-c2nc(N)cc(N)n2)cs1)C(C)C [OR0636]"
measurement_target = "dCK-C3S-S74E"
assigned_category = 1.0

[[record]]
compound = "Cc1ccc(-c2ccc(CCN3CCN(C)CC3)cc2)cc1N(CC(C)C)c1nc(-c2nc(N)cc(N)n2)cs1 [OR0603]"
measurement_target = "dCK-C3S-S74E"
assigned_category = 0.0

[[record]]
compound = "CCCN(c1nc(-c2nc(N)cc(N)n2)cs1)c1cc(-c2ccc(S(=O)(=O)C3CCNCC3)cc2)ccc1C [OR0646]"
measurement_target = "dCK-C3S-S74E"
assigned_category = 0.0

[[record]]
compound = "CCCN(c1nc(-c2nccc(N)n2)cs1)c1cc(-c2ccc(OCCN3CCN(C)CC3)cc2)ccc1C [OR0596]"
measurement_target = "dCK-C3S-S74E"
assigned_category = 1.0

[[record]]
compound = "CCCN(c1nc(-c2nc(N)cc(N)n2)cs1)c1cc(-c2ccc(S(N)(=O)=O)cc2)ccc1C [OR0615]"
measurement_target = "dCK-C3S-S74E"
assigned_category = 1.0

[[record]]
compound = "CN1CCN(Cc2ccc(C(=O)Nc3ccc4c(c3)N(c3nc(-c5nccc(N)n5)cs3)CCCC4)cc2)CC1 [OR0289]"
measurement_target = "dCK-C3S-S74E"
assigned_category = 1.0

